target: ABCG2 (Homo sapiens, UniProt Q9UNQ0); assay: JC-1 efflux inhibition dose-response, flow cytometry, Ig-MXP3 cells; assay type: cell-based; settings: quotient of average ABCB1 IC50 and average ABCG2 IC50, JC-1 efflux assay
Sequence (Q9UNQ0 whole entry): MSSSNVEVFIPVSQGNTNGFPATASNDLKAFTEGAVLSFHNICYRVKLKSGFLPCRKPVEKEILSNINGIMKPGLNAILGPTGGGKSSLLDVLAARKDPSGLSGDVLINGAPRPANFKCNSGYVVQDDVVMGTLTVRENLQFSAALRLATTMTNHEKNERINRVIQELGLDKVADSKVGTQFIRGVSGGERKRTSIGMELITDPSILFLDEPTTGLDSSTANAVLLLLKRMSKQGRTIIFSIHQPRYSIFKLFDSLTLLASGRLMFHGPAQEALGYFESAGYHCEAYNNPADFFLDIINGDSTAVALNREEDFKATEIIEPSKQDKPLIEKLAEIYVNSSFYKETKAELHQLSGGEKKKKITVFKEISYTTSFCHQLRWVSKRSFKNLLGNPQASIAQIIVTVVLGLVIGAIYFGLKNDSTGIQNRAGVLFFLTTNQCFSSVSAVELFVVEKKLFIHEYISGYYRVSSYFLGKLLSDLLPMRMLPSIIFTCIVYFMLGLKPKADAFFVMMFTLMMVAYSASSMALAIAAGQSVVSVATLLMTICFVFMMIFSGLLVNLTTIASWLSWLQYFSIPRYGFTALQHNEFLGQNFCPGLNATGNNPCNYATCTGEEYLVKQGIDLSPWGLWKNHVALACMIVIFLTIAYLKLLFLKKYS
Each entry below lists one item and its recorded ∼Fold G2 Selective value.
Numeric answer only, unit fold assumed.

Examples with their reported ∼Fold G2 Selective follow.
[[record]]
compoundstring = "Cc1cccc(-c2cc3nc(-c4ccccc4)cc(N4CCN(C(=O)c5ccco5)CC4)n3n2)c1"
recordedmetric = "∼Fold G2 Selective"
experimentalvalue = 1.6

[[record]]
compoundstring = "O=C(c1cccc(Cl)c1)N1CCN(c2cc(-c3ccccc3)nc3cc(-c4cccc(Cl)c4)nn23)CC1"
recordedmetric = "∼Fold G2 Selective"
experimentalvalue = 1.4


Turning to the following molecule.
Query string: Which value of ∼Fold G2 Selective has been reported for COc1ccc(-c2cc3nc(-c4ccccc4)cc(N4CCN(C(=O)c5ccoc5)CC4)n3n2)cc1 in the records?
Result string: 1.2
